System: Es-2
Experiment: Primary qHTS to identify gynecologic anti-cancer compounds using libraries of approved drugs and bioactive compounds (AID 1345084); note: nearly all actives have a fitted effect of over 55% in size; note: potency is the fitted concentration of half-maximal effect
Details: Gynecologic cancer cell panel viability, ATPlite luminescence, 48 h; series mostly up to 57.5 µM
Source text: National Center for Advancing Translational Sciences [NCATS] Assay Overview: Chemotherapeutic drug responses vary from cancer to cancer and from patient to patient. […] ATPlite is a luminescence based assay reliant on the conversion of a luciferase substrate to light in the presence of ATP. As a cytotoxic compound will suppress growth and decrease the number of cells, the concentration of ATP will decrease, and less light signal will be detected in the well. […]
Records with an inconclusive call do not appear. Activity calls are given as the source filed them. Calls come from the whole dose curve; as a rule, active = well fitted cell-killing curve with a large enough effect; inconclusive = small, poorly fitted or top-dose-only effect, or effect the other way; inactive = flat fitted curve, though single readings scatter.
propertyMeasured: Potency

CC1CCC2(OC1)OC1CC3C4CCC5C[C@@H](O[C@@H]6O[C@H](CO[C@@H]7OC[C@@H](O)[C@H](O)[C@H]7O)[C@H](O)[C@H](O)[C@H]6O)CC[C@]5(C)C4CC[C@]3(C)C1C2C (stereo partly drawn); inactive
COc1cc(-c2ncn(/C=C\C(=O)OC(C)C)n2)cc(C(F)(F)F)c1; 891 nM (active)
CN1CCN(C(=O)c2ccc3cc(CCNc4ncnc5ccc(C#N)cc45)ccc3c2)CC1; inactive
C[C@@H]([C@@H](O)c1ccc(O)cc1)N1CCC(O)(c2ccccc2)CC1; inactive
COC1C(=O)CCC2(CO2)C1(O)C1(C)OC1CC=C(C)C (stereo not drawn); inactive

// each molecule listed below needs its Potency
1. O=C(O)C(O[C@@H]1O[C@H](CO[C@@H]2O[C@H](CO)[C@@H](O)[C@H](O)[C@H]2O)[C@@H](O)[C@H](O)[C@H]1O)c1ccccc1 (stereo partly drawn)
2. CC/C=C\CCO[C@@H]1O[C@H](CO)[C@@H](O)[C@H](O)[C@H]1O
3. CC1(C)CCCC2(C)C1CC(=O)C13CC(CCC12)C(O)(CO)C3 (stereo not drawn)

1. inactive
2. inactive
3. 4470 nM (active)
